meta.source: the Human Domainome abundance scans (Beltran et al. 2025)

B1: Ventral anterior homeobox 1, residues 102 to 157; numbered along this chain, Q5SQQ9 (parent)
chain: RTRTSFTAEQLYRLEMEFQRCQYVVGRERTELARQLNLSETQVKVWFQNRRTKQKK

- Variants of: B1
- assay.protocol: abundance fitness (aPCA) (normalised: wild type 0, dead -1); higher = more abundant; growth selection in yeast, the domain comes from the species named
- test.conditions: Homo sapiens
property: abundance fitness
Reply with just the number.

Would you kindly share the measured abundance fitness for `E31P` ?
-0.662

Could you share which abundance fitness value was measured for `V45M` ?
-0.148

// lookup abundance fitness for `K44M`
-0.079

Requested read-out: abundance fitness. Entry: `M16A`
-0.043

# get_value(readout='abundance fitness', item= `R13P` )
-0.849

// query abundance fitness value for entry `L14T`
-0.843

Would you kindly share the measured abundance fitness for `R1M` ?
0.083

Fill in: abundance fitness of `R13Y` is ___
-0.316

Dear colleague, I am looking for the recorded abundance fitness of the following variant: `R3N`
0.268

# input variant: `F18L` ; wanted: its abundance fitness
-0.927

What measured abundance fitness goes with `F6E` ?
-0.559

If you can, please state the reported abundance fitness value of `S5M` .
0.08

Find the recorded abundance fitness belonging to `T7V` and report it.
-0.466

Looking for the measured abundance fitness of `R27S` , can you help?
0.18

Sample `S39C` — what was its abundance fitness?
-0.266

I have this variant here, `R1G` , and I need its recorded abundance fitness.
-0.002

GET /values?readout=abundance fitness&item= `A33T`
-0.557

Given the variant `L11A` , what is its reported abundance fitness?
-0.075

Query (variant): `L11F` ; field requested: abundance fitness
-0.159

Look up abundance fitness for this variant: `A33E`
-0.905

Give its abundance fitness value. Item: `T4Q`
-0.11

Requested read-out: abundance fitness. Entry: `Q19V`
-0.153
